Target: 3',5'-cyclic-AMP phosphodiesterase 4A (Homo sapiens, UniProt P27815)
Sequence (P27815 whole entry): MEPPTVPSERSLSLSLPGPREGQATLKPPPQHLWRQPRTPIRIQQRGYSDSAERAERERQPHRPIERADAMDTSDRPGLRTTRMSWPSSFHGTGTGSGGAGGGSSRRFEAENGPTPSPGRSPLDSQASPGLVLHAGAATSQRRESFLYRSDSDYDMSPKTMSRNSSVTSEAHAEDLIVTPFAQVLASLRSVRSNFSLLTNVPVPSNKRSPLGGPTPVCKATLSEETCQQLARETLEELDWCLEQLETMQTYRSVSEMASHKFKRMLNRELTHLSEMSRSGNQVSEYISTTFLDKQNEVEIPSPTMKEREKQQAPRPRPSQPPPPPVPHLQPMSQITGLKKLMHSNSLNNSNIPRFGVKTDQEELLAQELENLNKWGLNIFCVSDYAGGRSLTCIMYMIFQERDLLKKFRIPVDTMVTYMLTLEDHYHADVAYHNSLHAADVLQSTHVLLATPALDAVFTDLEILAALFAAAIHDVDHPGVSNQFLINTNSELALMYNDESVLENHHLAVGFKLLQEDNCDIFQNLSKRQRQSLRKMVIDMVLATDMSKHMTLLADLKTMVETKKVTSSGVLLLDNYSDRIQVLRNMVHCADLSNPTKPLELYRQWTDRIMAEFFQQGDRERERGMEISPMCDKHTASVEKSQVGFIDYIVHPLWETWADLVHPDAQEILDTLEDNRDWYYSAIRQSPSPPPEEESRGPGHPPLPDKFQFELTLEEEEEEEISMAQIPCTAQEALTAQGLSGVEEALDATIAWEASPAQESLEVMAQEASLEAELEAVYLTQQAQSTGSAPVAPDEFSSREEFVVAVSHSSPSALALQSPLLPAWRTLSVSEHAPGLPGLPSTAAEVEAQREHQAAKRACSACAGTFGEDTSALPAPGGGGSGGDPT
Assay: Affinity Biochemical interaction: (radioligand binding assay, inhibition of [3H]cAMP or [3H]cGMP cleavage) EUB0002534a PDE4A
Set-up: mode of action Inhibitor, recommended concentration 1 uM
pIC50: −log10 of the molar value.
PROPERTY_MEASURED: pIC50

• Nc1cc2c3c(c1)C(c1ccccc1)=N[C@@H](NC(=O)c1cccnc1)C(=O)N3CC2 = 6.54

----------
Biological target: Histone deacetylase 3 (Homo sapiens, UniProt O15379)
Sequence (O15379 whole entry): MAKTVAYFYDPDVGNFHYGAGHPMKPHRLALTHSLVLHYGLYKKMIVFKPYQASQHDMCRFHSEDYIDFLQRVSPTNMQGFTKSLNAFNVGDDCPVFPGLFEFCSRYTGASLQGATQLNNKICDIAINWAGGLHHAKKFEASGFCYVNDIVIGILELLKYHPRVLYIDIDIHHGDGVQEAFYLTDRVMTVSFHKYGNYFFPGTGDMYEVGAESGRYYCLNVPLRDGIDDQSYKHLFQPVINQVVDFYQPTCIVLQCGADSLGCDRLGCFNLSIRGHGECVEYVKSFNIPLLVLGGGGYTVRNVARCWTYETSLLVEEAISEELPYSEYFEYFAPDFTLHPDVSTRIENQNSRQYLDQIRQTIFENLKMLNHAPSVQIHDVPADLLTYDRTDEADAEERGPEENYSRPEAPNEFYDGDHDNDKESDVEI
PROPERTY_MEASURED: IC50 (nM)

• CN(C)Cc1ccc(S(=O)(=O)n2ccc(/C=C/C(=O)NO)c2)cc1 = 50.1

src = ChEMBL document CHEMBL5723035
